target: human PDE10A (Homo sapiens (Human), UniProt Q9Y233)
Sequence (Q9Y233 other isoform, or with tags, fused parts or gaps): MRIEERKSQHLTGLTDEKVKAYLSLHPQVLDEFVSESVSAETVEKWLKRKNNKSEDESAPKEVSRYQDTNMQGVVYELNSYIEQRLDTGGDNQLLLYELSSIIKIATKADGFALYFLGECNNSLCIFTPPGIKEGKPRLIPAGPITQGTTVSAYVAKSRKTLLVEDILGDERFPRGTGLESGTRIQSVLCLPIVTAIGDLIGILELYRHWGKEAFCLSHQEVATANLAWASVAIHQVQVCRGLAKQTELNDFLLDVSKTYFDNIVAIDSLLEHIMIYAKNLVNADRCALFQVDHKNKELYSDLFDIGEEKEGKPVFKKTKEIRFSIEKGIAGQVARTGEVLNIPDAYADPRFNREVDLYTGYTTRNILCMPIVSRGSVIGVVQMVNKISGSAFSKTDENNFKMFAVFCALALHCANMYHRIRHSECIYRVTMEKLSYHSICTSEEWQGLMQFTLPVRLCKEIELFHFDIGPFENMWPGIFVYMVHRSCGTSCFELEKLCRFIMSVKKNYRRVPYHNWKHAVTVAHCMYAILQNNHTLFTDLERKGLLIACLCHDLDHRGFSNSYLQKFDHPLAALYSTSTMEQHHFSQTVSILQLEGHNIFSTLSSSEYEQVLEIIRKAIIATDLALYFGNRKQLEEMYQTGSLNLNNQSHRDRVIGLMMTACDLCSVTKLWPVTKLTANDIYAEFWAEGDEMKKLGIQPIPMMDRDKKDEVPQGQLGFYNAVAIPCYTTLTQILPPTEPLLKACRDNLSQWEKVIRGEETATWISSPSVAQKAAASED
Assign IC50 to each entry below.
Numbers only, in nM.

Items follow; give IC50 for each.
1. Cc1nc2c(C3CC3)cc(C#Cc3nc(N4CCCC4)nn3C)nn2c1C
2. Cn1nc(N2CCCC2)nc1C#Cc1ccc2nc(Cl)cn2n1
3. Cc1c(C(F)(F)F)nn2ccc(C#Cc3nc(N4CCCC4)nn3C)nc12
4. Cc1nc2c(C(C)C)cc(CCc3nc(N4CCCC4)nn3C)nn2c1C
5. Cc1cn2nc(C#Cc3nc(N4CCCC4)nn3C)ccc2n1

### Response
1. 1
2. 56
3. 8.7
4. 9
5. 10.2
